Data provenance: patent US20150166606A1

Answer each item with its documented Factor XIa IC50.
# systemTested: Factor XIa (Enzyme Research Laboratories) (human, UniProt P03951 19-625)
# Sequence (P03951 19-625 limits assumed): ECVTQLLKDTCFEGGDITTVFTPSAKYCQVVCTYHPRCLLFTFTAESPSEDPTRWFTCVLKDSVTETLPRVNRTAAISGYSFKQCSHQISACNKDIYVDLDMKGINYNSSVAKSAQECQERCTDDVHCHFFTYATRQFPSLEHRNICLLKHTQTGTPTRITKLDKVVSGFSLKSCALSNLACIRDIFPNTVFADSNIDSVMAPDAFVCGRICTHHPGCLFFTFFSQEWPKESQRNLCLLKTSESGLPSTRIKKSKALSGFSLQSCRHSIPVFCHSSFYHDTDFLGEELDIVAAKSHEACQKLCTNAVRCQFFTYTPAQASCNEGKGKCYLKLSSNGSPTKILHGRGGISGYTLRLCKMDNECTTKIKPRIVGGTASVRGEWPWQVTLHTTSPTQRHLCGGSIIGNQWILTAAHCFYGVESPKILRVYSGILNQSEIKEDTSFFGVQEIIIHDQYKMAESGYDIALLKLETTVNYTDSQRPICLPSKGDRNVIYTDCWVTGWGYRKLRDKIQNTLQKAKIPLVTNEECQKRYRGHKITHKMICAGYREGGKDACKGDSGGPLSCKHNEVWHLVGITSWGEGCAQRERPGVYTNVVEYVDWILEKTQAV
# protocol: cell-based or functional assay
Bridge positions count the residues as written; N and C are the ends. Square brackets hold non-standard residues; d marks the D form. Ends that are not written are not given here. mXylyl = xylyl linker from dibromoxylene joining the two cysteines; Phg = N[C@H](C(=O)O)c1ccccc1; Tle = CC(C)(C)[C@H](N)C(=O)O

Could you share which Factor XIa IC50 value was measured for Ac-CAS[Phg]CR[Tle]-NH2 (linker 1-5 via mXylyl) [R2036] ?
> 4.8 µM

How about MCNYWSPWTECSA-NH2 (cysteine pairing not given here) [R2104] ?
> 5 µM

Field entry: MCESICRV-NH2 (linker 2-6 via mXylyl) [R2006]
> 11.6 µM
